Assay: A qHTS for Small Molecule Inhibitors of Shiga Toxin; further: 0% is about no effect
Conditions: Vero cells, Shiga toxin protein synthesis inhibition reporter; at 38.7 µM
Out of some 290,000 compounds screened, about 27,000 (9.3%) were called active. No stated cut-off is given here; in the data, active means inhibition mostly above about 28% (no sharp cut-off); inactive means mostly below about 43%. Shown is part of a subset that was picked to be rich in actives.
Permitted responses: T (active), F (inactive)

Inquiry: Dear all, I need the recorded test outcome for `Cc1cc(C)nc(SCC(=O)c2ccc(Cl)cc2)n1` , thank you.
Reply text: F

More entries:
Inquiry: Dear all, I need the recorded test outcome for `Cc1n[nH]c(=O)n1-c1ccc(C(C)C)cc1` , thank you.
Reply text: F

Inquiry: Dear all, I need the recorded test outcome for `O=C(Cn1ncc(N2CCCC2)c(Br)c1=O)c1ccc(Cl)cc1` , thank you.
Reply text: T

Inquiry: Dear all, I need the recorded test outcome for `CCOC(=O)N1CCC(NC(=O)CCc2ccccc2)CC1` , thank you.
Reply text: F

Inquiry: Dear all, I need the recorded test outcome for `O=C(O)C1CCN(C(=O)OCc2ccccc2)CC1` , thank you.
Reply text: T

Inquiry: Dear all, I need the recorded test outcome for `CCc1nc(Nc2ccc(NC(C)=O)cc2)c2oc3ccccc3c2n1` , thank you.
Reply text: F

Inquiry: Dear all, I need the recorded test outcome for `Cc1cc(SCC(=O)c2ccccc2)nc(SCC(=O)c2ccccc2)n1` , thank you.
Reply text: F

====

Reported inhibition values for a set of compounds
Assay: A qHTS for Small Molecule Inhibitors of Shiga Toxin; further: 0% is about no effect
Details: Vero cells, Shiga toxin protein synthesis inhibition reporter; at 38.7 µM, hits give high values
About 27,000 (9.3%) of roughly 290,000 compounds were called active. This excerpt belongs to a sample that is enriched for actives.
Your answer should be a plain number; it is taken to be in %.

Inquiry: Respond only with inhibition recorded for COc1ccc(N2CCN(C3CCCCC3NS(=O)(=O)c3ccccc3)CC2)cc1 (stereo unspecified)
Reply text: -5.29

More entries:
Inquiry: Respond only with inhibition recorded for `Fc1cccc(Cl)c1COc1ccc(-c2nnco2)cc1`
Reply text: 30.1

Inquiry: Respond only with inhibition recorded for `COc1ccc2c(c1)CCc1c(C(=O)N3CCc4ccccc4C3)noc1-2`
Reply text: 26.1

Inquiry: Respond only with inhibition recorded for Cc1cc(=O)n2nc(N3CCCC(C(=O)NCc4cccc(Cl)c4)C3)sc2n1 (stereo unspecified)
Reply text: 10.1

====

Reported inhibition values for a set of compounds
Assay: A qHTS for Small Molecule Inhibitors of Shiga Toxin; further: 0% is about no effect
Conditions: Vero cells, Shiga toxin protein synthesis inhibition reporter; at 38.7 µM, hits give high values
About 27,000 (9.3%) of roughly 290,000 compounds were called active. Only a selection was taken, and actives are over-represented in it overall.

Example compounds with recorded inhibition:
Inquiry: Respond only with inhibition recorded for O=C1/C(=C/c2cccs2)SC(=S)N1C1CCS(=O)(=O)C1 (centres undefined)
Reply text: -16.1% (inactive)

Inquiry: Respond only with inhibition recorded for `CCCn1nc(NC(=O)C(C)C)c2cc3cc(OC)ccc3nc21`
Reply text: 40.5% (inactive)

Inquiry: Respond only with inhibition recorded for `COc1ccc(-c2ccnc(SCC(=O)N3CCOCC3)n2)cc1`
Reply text: 19.9% (inactive)

Inquiry: Respond only with inhibition recorded for `Cc1ccc(NC(=S)NCCc2ccc(Cl)cc2)c(C)c1`
Reply text: 13.6% (inactive)

Inquiry: Respond only with inhibition recorded for `CSCc1ccc(C(=O)Nc2cc(C)cc(C)c2)cc1`
Reply text: 39% (active)

More entries:
Inquiry: Respond only with inhibition recorded for `C=CCN(c1ccc(C(=O)Nc2cc(C)cc(C)c2)cc1)S(C)(=O)=O`
Reply text: 1.49% (inactive)

Inquiry: Respond only with inhibition recorded for O=C(c1cccs1)C1C(c2ccc(Br)cc2)NC(=S)NC1(O)C(F)(F)F (centres undefined)
Reply text: 69.1% (active)

Inquiry: Respond only with inhibition recorded for `CCc1cc(=O)oc2c(C)c(OCC(=O)N3CC[C@@]4(O)CCCC[C@H]4C3)ccc12`
Reply text: -4.55% (inactive)

Inquiry: Respond only with inhibition recorded for `COc1ccc(N2CCN(C(=O)CSc3nnc4ncccn34)CC2)cc1`
Reply text: -8.3% (inactive)

Inquiry: Respond only with inhibition recorded for CC(=O)C1C(c2ccc(Cl)cc2)NC(=O)NC1(O)C(F)(F)F (centres undefined)
Reply text: -1.27% (inactive)

Inquiry: Respond only with inhibition recorded for `COc1ccc(/C=N/NC(=O)C2CC2)c(OC)c1OC`
Reply text: -1.72% (inactive)

Inquiry: Respond only with inhibition recorded for CCOC(=O)C1C(c2ccc(Cl)cc2)NC(=S)NC1(O)C(F)(F)F (centres undefined)
Reply text: -9.88% (inactive)
